Values from the supplement of paper PMC4466140

# SPOT peptide array binding signal intensity annotations
- target.or.test.system: CaAbp1-D2
- experiment.description: SPOT peptide array binding signal intensity (averaged, normalized) (arbitrary units (background-subtracted, floor 0; scale differs between SH3 domains)); higher = stronger binding of the SH3 domain to the peptide
endpoint.label: SPOT peptide array binding signal intensity

>  <binder>
DKKTKPTPPPKPSHL

>  <reported.relation>
=

>  <result>
3130

$$$$
>  <binder>
PALPSLPPPPLLNVD

>  <reported.relation>
=

>  <result>
22

$$$$
>  <binder>
RRLRDKYKLPIVDAD

>  <reported.relation>
=

>  <result>
326

$$$$
>  <binder>
RVRKTHVPASKRPSG

>  <reported.relation>
=

>  <result>
520

$$$$
>  <binder>
WRPRIVPILPYITRL

>  <reported.relation>
=

>  <result>
92.5

$$$$
>  <binder>
LKHGWKPLRPIKLIS

>  <reported.relation>
=

>  <result>
1860

$$$$
>  <binder>
PPPPPPPPPPLPQSL

>  <reported.relation>
≤

>  <result>
0

$$$$
>  <binder>
LKVTPGRRAPTISKI

>  <reported.relation>
=

>  <result>
160

$$$$
>  <binder>
YSRKKLPVVLSKMTL

>  <reported.relation>
=

>  <result>
126

$$$$
>  <binder>
NFFRKKLGIPRKLKR

>  <reported.relation>
=

>  <result>
1180

$$$$
>  <binder>
RVTRKRPREPKSTND

>  <reported.relation>
=

>  <result>
550

$$$$
>  <binder>
NIKVLLNPKLGKPVK

>  <reported.relation>
=

>  <result>
32.5

$$$$
>  <binder>
SGVRLPAPPPPPRRG

>  <reported.relation>
=

>  <result>
1030

$$$$
>  <binder>
KTITLEVESSDTIDN

>  <reported.relation>
≤

>  <result>
0

$$$$
>  <binder>
VNFRRIPTGPDSPPT

>  <reported.relation>
≤

>  <result>
0

$$$$
>  <binder>
VRTRRRPPPPPIPST

>  <reported.relation>
=

>  <result>
55

$$$$
>  <binder>
LEFRAILFIPKRAPF

>  <reported.relation>
=

>  <result>
58

$$$$
>  <binder>
PPIPIVPSSPAPPLP

>  <reported.relation>
≤

>  <result>
0

$$$$
>  <binder>
FYHRPAPKPPVTKKV

>  <reported.relation>
=

>  <result>
269

$$$$
>  <binder>
DRIRMFIRFPKFLLE

>  <reported.relation>
=

>  <result>
318

$$$$
>  <binder>
PPLPRAPPVPPATFE

>  <reported.relation>
=

>  <result>
20

$$$$
>  <binder>
KRNRLKILLPFLEQS

>  <reported.relation>
=

>  <result>
154

$$$$
>  <binder>
RFKRHRLEFPFNESE

>  <reported.relation>
=

>  <result>
598

$$$$
>  <binder>
HKVLRPFLLRRLKKD

>  <reported.relation>
=

>  <result>
617

$$$$
>  <binder>
RRTRLRPPTPLSQLL

>  <reported.relation>
=

>  <result>
133

$$$$
>  <binder>
LASNSPPVYPKRIRH

>  <reported.relation>
=

>  <result>
47.5

$$$$
>  <binder>
LPPPPPPPPPPPLPQ

>  <reported.relation>
≤

>  <result>
0

$$$$
>  <binder>
PHNPSPFFPPPDFND

>  <reported.relation>
=

>  <result>
28

$$$$
>  <binder>
VPKEPAPAPPPEPDM

>  <reported.relation>
≤

>  <result>
0

$$$$
>  <binder>
LLRRTIPKRPFYHVL

>  <reported.relation>
=

>  <result>
775

$$$$
